- subject-of-test: rat mGlu3 receptor (Rattus norvegicus (Rat), UniProt P31422)
- Sequence (P31422 23-879): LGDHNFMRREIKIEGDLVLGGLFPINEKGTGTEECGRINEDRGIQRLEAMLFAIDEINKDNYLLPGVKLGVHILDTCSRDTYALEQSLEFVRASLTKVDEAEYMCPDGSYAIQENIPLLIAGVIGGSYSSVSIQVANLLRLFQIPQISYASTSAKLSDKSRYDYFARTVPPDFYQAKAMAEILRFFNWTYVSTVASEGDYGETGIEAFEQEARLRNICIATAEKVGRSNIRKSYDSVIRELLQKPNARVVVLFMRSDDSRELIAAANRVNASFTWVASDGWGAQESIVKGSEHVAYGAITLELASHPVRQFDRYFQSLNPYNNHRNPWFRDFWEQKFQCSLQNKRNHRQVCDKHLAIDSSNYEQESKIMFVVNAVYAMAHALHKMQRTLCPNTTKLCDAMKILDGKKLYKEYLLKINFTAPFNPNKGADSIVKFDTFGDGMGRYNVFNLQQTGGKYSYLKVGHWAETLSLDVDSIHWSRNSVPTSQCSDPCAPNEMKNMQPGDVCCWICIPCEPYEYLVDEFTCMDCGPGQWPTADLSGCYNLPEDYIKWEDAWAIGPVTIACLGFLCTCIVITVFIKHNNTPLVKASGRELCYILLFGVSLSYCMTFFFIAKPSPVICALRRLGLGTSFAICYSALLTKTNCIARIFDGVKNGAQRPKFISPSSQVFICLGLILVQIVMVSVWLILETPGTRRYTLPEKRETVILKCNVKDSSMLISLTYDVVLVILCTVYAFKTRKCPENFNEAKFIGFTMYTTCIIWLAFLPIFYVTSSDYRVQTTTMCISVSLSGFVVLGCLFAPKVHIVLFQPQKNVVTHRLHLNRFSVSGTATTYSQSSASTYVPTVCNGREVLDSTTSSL
- assay-summary: mGlu3 in vitro GIRK thallium flux assay
- Format: cell-based
- experimental-conditions: NAM; 2.5 min compound incubation; EC80 glutamate; HEK-293 GIRK cells
Field: label. Allowed values: True (EC50 < 2 µM) or False (EC50 >= 2 µM).

Completed entries (count: 4):
O=C(O)c1cccc(-c2cccc(-c3nc(-c4ccc(C(F)(F)F)nc4)cc(C(F)(F)F)n3)c2)c1 = True
O=C(O)c1ccc(-c2cccc(-c3nc(-c4ccc(C(F)(F)F)nc4)cc(C(F)(F)F)n3)c2)s1 = False
O=C(O)c1cccc(-c2cccc(-c3nc(-c4ccoc4)cc(C(F)(F)F)n3)c2)c1 = True
O=C(O)c1cccc(-c2cccc(-c3nc(-c4ccoc4)n(-c4ccccc4)n3)c2)c1 = False

Quick check: EC50 of COc1ccc(-c2cccc(-c3nc(-c4ccco4)cc(C(F)(F)F)n3)c2)cc1C(=O)O under 2 µM?
False

Quick check: EC50 of O=C(O)c1cc(-c2cccc(-c3nc(-c4ccc(C(F)(F)F)nc4)cc(C(F)(F)F)n3)c2)ccc1Cl under 2 µM?
True

Quick check: EC50 of O=C(O)c1cc(-c2cccc(-c3nc(-c4cccnc4F)cc(C(F)(F)F)n3)c2)ccc1F under 2 µM?
False

Quick check: EC50 of O=C(O)c1cc(-c2cccc(Oc3nc(-c4ccco4)cc(C(F)(F)F)n3)c2)ccc1F under 2 µM?
False

----------
- subject-of-test: rat mGlu2 receptor (Rattus norvegicus (Rat), UniProt P31421)
- Sequence (P31421 19-872): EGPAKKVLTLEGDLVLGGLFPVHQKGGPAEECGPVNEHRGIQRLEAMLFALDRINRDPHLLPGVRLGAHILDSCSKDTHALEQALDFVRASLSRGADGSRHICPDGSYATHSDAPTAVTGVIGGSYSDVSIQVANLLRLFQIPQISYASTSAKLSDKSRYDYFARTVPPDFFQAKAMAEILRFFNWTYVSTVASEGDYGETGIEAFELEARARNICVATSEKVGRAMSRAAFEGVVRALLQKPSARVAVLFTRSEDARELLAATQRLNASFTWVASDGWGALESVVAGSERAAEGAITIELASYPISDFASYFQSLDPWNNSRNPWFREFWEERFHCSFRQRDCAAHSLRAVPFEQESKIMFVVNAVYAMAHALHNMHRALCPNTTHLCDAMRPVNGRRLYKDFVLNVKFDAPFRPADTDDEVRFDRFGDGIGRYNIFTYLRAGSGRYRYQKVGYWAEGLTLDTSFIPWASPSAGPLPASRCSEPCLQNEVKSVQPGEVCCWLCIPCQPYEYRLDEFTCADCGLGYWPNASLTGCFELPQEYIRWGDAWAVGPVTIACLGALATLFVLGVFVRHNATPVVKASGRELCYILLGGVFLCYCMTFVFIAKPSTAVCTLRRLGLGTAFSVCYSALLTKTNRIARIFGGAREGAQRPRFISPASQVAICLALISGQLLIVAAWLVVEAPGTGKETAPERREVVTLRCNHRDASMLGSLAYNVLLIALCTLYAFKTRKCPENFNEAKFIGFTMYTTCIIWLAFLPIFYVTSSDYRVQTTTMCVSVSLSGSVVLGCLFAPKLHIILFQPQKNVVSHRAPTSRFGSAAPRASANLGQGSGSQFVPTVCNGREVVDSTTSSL
- assay-summary: mGlu2 in vitro GIRK thallium flux assay
- Assay type: cell-based
- experimental-conditions: mGlu2 EC50 (μM) (60 min), NAM; 60 min compound incubation; EC80 glutamate; HEK-293 GIRK cells
Record form. Attribute: EC50. Fill in for each entry.
Give bare numbers, in µM.

C#CCNC(=O)c1cccc(C2CC(=O)Nc3cc(C(F)(F)F)c(C)cc3N2)c1 (racemic) [Example 170B] = 3.68
Cc1cc2c(cc1C(F)(F)F)NC(=O)CC(c1cccc(Oc3ccccn3)c1)N2 (racemic) = 1.47
O=C(O)c1cccc(-c2cccc(-c3noc(-c4ccccc4)n3)c2)c1 = 0.79

Turning now to a further molecule:
// EC50 lookup, molecule = COc1ccc(-c2cccc(-c3csc(-c4ccccc4)n3)c2)cc1C(=O)O , result: 2.14

----------
- subject-of-test: rat mGlu2 receptor (Rattus norvegicus (Rat), UniProt P31421)
- assay-summary: mGlu2 in vitro GIRK thallium flux assay
- Assay type: cell-based
- experimental-conditions: read-out: mGlu2 EC50 (μM) (60 min); NAM; 60 min compound incubation; EC80 glutamate; HEK-293 GIRK cells
outcome-measure: log10 EC50 (log10 of the value in µM)
Please keep in mind that the values are log10 of EC50 expressed in µM.

Example compounds with recorded log10 EC50:
COc1ccc(-c2cc(C(F)(F)F)nc(-c3cccc(-c4ccc(F)c(C(=O)O)c4)c3)n2)cc1OC = 0.11
COc1ccc(-c2cc(C(F)(F)F)nc(-c3cccc(-c4ccc(F)c(C(=O)O)c4)c3)n2)cc1 = -1.22
O=C1CC(c2ccnc(Br)c2)=Nc2ccc(C(F)(F)F)cc2N1 = -1.10
O=C(O)c1cc(-c2cccc(-c3nc(-c4ccc(Cl)cc4)cc(C(F)(F)F)n3)c2)ccc1F = -0.46
O=C(O)c1cc(-c2cccc(-c3nc(-c4ccc(C(F)(F)F)nc4)cc(C(F)(F)F)n3)c2)ccc1F = -0.77
COc1ccc(-c2ccc3c(c2)NC(=O)CC(c2ccnc(Cl)c2)=N3)cc1OC = 0.42

Fill in log10 EC50 for each of the 7 compounds listed.
1. O=C(NO)c1cc(-c2cccc(-c3nc(-c4ccoc4)cc(C(F)(F)F)n3)c2)ccc1F
2. O=C(O)c1cc(-c2cccc(-c3nc(-c4ccsc4)cc(C(F)(F)F)n3)c2)ccc1F
3. O=C(O)c1cc(-c2cccc(-c3nc(-c4cccnc4F)cc(C(F)(F)F)n3)c2)ccc1F
4. O=C(O)c1cc(-c2ccc(-c3nc(-c4ccc(C(F)(F)F)nc4)cc(C(F)(F)F)n3)cc2)ccc1F
5. Cc1cccc(-c2ccc3c(c2)NC(=O)CC(c2ccnc(Cl)c2)=N3)c1
6. O=C(O)c1cc(-c2cccc(-c3nc(-c4ccccc4F)cc(C(F)(F)F)n3)c2)ccc1F
7. O=C(O)c1cc(-c2cccc(-c3nc(-c4nccs4)cc(C(F)(F)F)n3)c2)ccc1F

[0.53, -1.15, -0.44, -0.31, -0.02, -0.80, -0.53]

// returns log10 EC50 for N#Cc1cc(C2=Nc3ccc(F)cc3NC(=O)C2)ccn1 with rat mGlu2 receptor (Rattus norvegicus (Rat), UniProt P31421); value = -0.51
